system: biotinyl-Met-oxazolone; assay: self-aminoacylation, catalytic enhancement (BMO) (fold over background); higher = more active; k-Seq, kA / k0A0; sequences stand for … in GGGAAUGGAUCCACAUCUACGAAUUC…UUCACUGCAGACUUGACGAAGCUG
Variants at the floor of the assay were thinned out.
Everything with self-aminoacylation lower than 1 is False; everything else, including exactly 1, is True.

Confirm if self-aminoacylation reported for the sequence GUAUUUCAAACAAUCGGUCUG [Fam1A.1 aminoacylation ribozyme variant] is 1 or above.
True

Evaluate AUUCACCUAGGCCAUCGGGCG [Fam2.2 aminoacylation ribozyme variant] : self-aminoacylation at minimum 1?
True

Form field: self-aminoacylation at least 1? Entry: AUUCAUCUAGGUCAUCGGAUG [Fam2.2 aminoacylation ribozyme variant]
False

Reported self-aminoacylation reaches at least 1 for AACUUUGCUAAUAGUCGCCAG [Fam3.1 aminoacylation ribozyme variant] ?
True

I'd appreciate it if you could say whether AUUCACCUAGGUUAACGGGUG [Fam2.2 aminoacylation ribozyme variant] has self-aminoacylation at least equal to 1.
True

Evaluate AUUACGAUGGUCAUCGAGUGA [Fam2.1 aminoacylation ribozyme variant] : self-aminoacylation at minimum 1?
True

Is self-aminoacylation for CUACUUCAUACAAUCGGUCUU [Fam1A.1 aminoacylation ribozyme variant] at or above 1?
False

Reported self-aminoacylation at or above 1? AUUCACCUAGGGUAUCGGGUG [Fam2.2 aminoacylation ribozyme variant]
True

State whether the measured self-aminoacylation reaches 1, counting equality as reaching it, for AAGUCUGCUAAUAGUCGCGAG [Fam3.1 aminoacylation ribozyme variant]
True

Check this sequence for self-aminoacylation at or above 1: AUUACCCUGGUCAACGACUGA [Fam2.1 aminoacylation ribozyme variant]
False

Please indicate if the recorded self-aminoacylation for AAGUGUGCUAAUAGUCGUAAG [Fam3.1 aminoacylation ribozyme variant] meets or exceeds 1.
True

Is it the case that AUUACCCUGGUCGGCGAGUGA [Fam2.1 aminoacylation ribozyme variant] has self-aminoacylation reaching or exceeding 1?
True

Hello, I need to know if CCACACUUCCAGCAAUCGGUG [Fam1B.1 aminoacylation ribozyme variant] has measured self-aminoacylation not below 1. Thanks!
True

Quick check: does AUGUUAGCUAAUAGUCGCAAG [Fam3.1 aminoacylation ribozyme variant] have self-aminoacylation greater than or equal to 1?
True

Say whether CCACUCUUCAAGCAAGCGGUC [Fam1B.1 aminoacylation ribozyme variant] shows self-aminoacylation of 1 or more.
False

Is self-aminoacylation at least 1? Consider CUACUUCGAACAAUCGGUGUG [Fam1A.1 aminoacylation ribozyme variant]
True

Please check the record AAGUUUGGUAAUAGUCGCAAC [Fam3.1 aminoacylation ribozyme variant] and state if its self-aminoacylation is at or above 1.
True

Could you please find out whether AUUACCCUGUUCUUCGAGUGA [Fam2.1 aminoacylation ribozyme variant] has self-aminoacylation that meets 1 or exceeds it?
True

Identify whether the reported self-aminoacylation of the following sequence is 1 or greater: AUUCCCCUAGGCCAUCGGGUG [Fam2.2 aminoacylation ribozyme variant]
True

Does the reported self-aminoacylation for AUGUUUGCCAAUAGUCGCAAG [Fam3.1 aminoacylation ribozyme variant] fall at or above the 1 mark?
True

Is reported self-aminoacylation greater than or equal to 1 here: AAGUUUGCUAAUGGUCGAAAG [Fam3.1 aminoacylation ribozyme variant]
False

Quick check: does CUACUUCAAUCUAUCGGUCUG [Fam1A.1 aminoacylation ribozyme variant] have self-aminoacylation greater than or equal to 1?
False

Please check the record AACUUUGCUGAUAGUCGCAAG [Fam3.1 aminoacylation ribozyme variant] and state if its self-aminoacylation is at or above 1.
True

// inclusive: self-aminoacylation at least 1? input: CCACACUUCAAGCAAUCGCAC [Fam1B.1 aminoacylation ribozyme variant]
False

Please tell me: is the sequence AUCACCCUGGUCAUCAAGUGA [Fam2.1 aminoacylation ribozyme variant] at or over 1 in terms of self-aminoacylation?
True

Say whether AAUACCCUGGUGAUCGAGUGA [Fam2.1 aminoacylation ribozyme variant] shows self-aminoacylation of 1 or more.
True

Textbook exercise: given the entry AGUACCCUGGUCAUCGACUGA [Fam2.1 aminoacylation ribozyme variant] , state whether its self-aminoacylation is greater than or equal to 1.
True

I'd appreciate it if you could say whether CUAAUUCAAACAAUCGGUUUG [Fam1A.1 aminoacylation ribozyme variant] has self-aminoacylation at least equal to 1.
False

// inclusive: self-aminoacylation at least 1? input: CUUCACCUAGGUCAUCGUGUG [Fam2.2 aminoacylation ribozyme variant]
True

Form field: self-aminoacylation at least 1? Entry: CUACUUCAAAGAAUCGGUCUU [Fam1A.1 aminoacylation ribozyme variant]
False

Item CCACAAUUCAAGCAAUCGGGC [Fam1B.1 aminoacylation ribozyme variant] with self-aminoacylation of 1 or above?
True

Entry AUCACCCUGGUCAUCGAGUGU [Fam2.1 aminoacylation ribozyme variant] : is its self-aminoacylation no less than 1?
True

Could you verify whether the entry CUAGUUCAAACAAUCGGUCAG [Fam1A.1 aminoacylation ribozyme variant] shows self-aminoacylation of no less than 1?
False

For this sequence, is measured self-aminoacylation 1 or higher? AUUCACCUAGGUCAUCAGGAG [Fam2.2 aminoacylation ribozyme variant]
False

Tell me whether self-aminoacylation is at least 1 here: UAGUUUGCUAAAAGUCGCAAG [Fam3.1 aminoacylation ribozyme variant]
True
